Ki listing for selected compounds.
target: HDAC3/N-CoR2 (Homo sapiens); test: HDAC deacetylase homogenous fluorescence assay, HDAC3; format: biochemical; conditions: read-out: HDAC3 Ki; converted from IC50 using Cheng-Prusoff equation
Answer format reminder: number followed by unit.

Record OC[C@H]1O[C@H]([S-])[C@H](O)[C@@H](O)[C@@H]1O.[Au+] [Aurothioglucose, 1-thio-D-glucopyronaose gold salt] . Reported Ki: 1.23 µM

Value of Ki reported for the compound `NC(N)=Nc1ccc2[nH]c3c(c2c1)C[C@@]1(O)[C@H]2Cc4ccc(O)c5c4[C@@]1(CCN2CC1CC1)[C@H]3O5` is 2.43 µM

The recorded Ki for entry `COc1ccc2c(c1)CC[C@@H]1[C@@H]2CC[C@]2(C)[C@@H](NCCCCCCN3C(=O)C=CC3=O)CC[C@@H]12` equals 0.66 µM

* * *

target: HDAC1 (Homo sapiens); experiment: HDAC deacetylase homogenous fluorescence assay, HDAC1; format: biochemical; conditions: read-out: HDAC1 Ki; converted from IC50 using Cheng-Prusoff equation
Sequence (Q13547 whole entry): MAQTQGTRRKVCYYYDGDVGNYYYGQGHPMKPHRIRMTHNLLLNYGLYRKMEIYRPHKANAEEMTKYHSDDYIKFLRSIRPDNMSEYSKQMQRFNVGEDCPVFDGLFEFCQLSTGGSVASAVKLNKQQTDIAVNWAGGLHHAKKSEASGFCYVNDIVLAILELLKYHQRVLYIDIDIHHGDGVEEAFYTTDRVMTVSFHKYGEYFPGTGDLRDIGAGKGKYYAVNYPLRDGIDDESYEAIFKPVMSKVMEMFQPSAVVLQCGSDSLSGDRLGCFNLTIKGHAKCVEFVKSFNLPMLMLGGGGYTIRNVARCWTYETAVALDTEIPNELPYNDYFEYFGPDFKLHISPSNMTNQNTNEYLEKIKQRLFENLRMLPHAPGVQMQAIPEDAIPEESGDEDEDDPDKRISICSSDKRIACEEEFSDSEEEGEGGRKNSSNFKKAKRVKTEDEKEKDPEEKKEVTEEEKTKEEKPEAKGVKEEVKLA
OUTCOME_MEASURE: pKi
The meaning of pKi here: minus log10 of the concentration in molar units.

1) NC(N)=Nc1ccc2[nH]c3c(c2c1)C[C@@]1(O)[C@H]2Cc4ccc(O)c5c4[C@@]1(CCN2CC1CC1)[C@H]3O5 : 5.49
2) COc1ccc2c(c1)CC[C@@H]1[C@@H]2CC[C@]2(C)[C@@H](NCCCCCCN3C(=O)C=CC3=O)CC[C@@H]12 : 5.39

The value of pKi measured for the compound OC[C@H]1O[C@H]([S-])[C@H](O)[C@@H](O)[C@@H]1O.[Au+] [Aurothioglucose, 1-thio-D-glucopyronaose gold salt] turned out to be 6.33

* * *

Recorded Ki values for a group of molecules are listed next.
molecular target: HDAC5 (Homo sapiens, UniProt Q9UQL6); test: HDAC deacetylase homogenous fluorescence assay, HDAC5; assay type: biochemical; conditions: read-out: HDAC5 Ki; converted from IC50 using Cheng-Prusoff equation
Sequence (Q9UQL6 whole entry): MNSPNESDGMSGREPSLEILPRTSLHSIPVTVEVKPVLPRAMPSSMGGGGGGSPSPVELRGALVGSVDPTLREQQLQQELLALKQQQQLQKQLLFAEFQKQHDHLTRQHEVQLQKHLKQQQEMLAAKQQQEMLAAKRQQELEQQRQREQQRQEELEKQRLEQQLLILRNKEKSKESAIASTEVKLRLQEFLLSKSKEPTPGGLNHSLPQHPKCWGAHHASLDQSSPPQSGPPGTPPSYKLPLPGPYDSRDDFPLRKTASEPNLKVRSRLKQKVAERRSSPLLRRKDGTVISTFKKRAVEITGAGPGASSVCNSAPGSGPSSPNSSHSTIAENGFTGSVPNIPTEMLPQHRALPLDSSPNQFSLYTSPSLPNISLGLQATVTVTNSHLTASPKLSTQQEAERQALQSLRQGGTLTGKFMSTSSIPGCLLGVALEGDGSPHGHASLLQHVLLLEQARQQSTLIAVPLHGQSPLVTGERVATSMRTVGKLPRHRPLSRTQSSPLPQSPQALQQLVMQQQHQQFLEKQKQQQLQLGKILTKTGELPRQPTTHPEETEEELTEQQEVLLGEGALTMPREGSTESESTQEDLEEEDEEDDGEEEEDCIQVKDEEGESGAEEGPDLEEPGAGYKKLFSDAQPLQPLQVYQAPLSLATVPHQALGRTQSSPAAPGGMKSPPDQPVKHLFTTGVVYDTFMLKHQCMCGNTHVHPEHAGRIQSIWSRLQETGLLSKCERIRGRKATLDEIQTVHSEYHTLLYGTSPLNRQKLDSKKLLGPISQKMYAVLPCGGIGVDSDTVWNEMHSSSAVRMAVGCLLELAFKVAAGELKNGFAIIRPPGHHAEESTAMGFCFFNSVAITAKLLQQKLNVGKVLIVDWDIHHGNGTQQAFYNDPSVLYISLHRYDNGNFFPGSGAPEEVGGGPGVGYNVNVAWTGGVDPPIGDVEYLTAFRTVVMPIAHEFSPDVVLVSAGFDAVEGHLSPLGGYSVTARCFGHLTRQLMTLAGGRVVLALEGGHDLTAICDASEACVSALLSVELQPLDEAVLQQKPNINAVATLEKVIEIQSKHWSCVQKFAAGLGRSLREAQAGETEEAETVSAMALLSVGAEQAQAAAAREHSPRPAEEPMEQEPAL
State the answer as a number, implicitly in µM.

1) OC[C@H]1O[C@H]([S-])[C@H](O)[C@@H](O)[C@@H]1O.[Au+] [Aurothioglucose, 1-thio-D-glucopyronaose gold salt] : 0.39
2) COc1ccc2c(c1)CC[C@@H]1[C@@H]2CC[C@]2(C)[C@@H](NCCCCCCN3C(=O)C=CC3=O)CC[C@@H]12 [U-73122] : 5.68

The recorded Ki for NC(N)=Nc1ccc2[nH]c3c(c2c1)C[C@@]1(O)[C@H]2Cc4ccc(O)c5c4[C@@]1(CCN2CC1CC1)[C@H]3O5 [GNTI] is 0.38

* * *

target: HDAC3/N-CoR2 (Homo sapiens, UniProt O15379); experiment: HDAC deacetylase homogenous fluorescence assay, HDAC3; type: biochemical
Sequence (O15379 whole entry): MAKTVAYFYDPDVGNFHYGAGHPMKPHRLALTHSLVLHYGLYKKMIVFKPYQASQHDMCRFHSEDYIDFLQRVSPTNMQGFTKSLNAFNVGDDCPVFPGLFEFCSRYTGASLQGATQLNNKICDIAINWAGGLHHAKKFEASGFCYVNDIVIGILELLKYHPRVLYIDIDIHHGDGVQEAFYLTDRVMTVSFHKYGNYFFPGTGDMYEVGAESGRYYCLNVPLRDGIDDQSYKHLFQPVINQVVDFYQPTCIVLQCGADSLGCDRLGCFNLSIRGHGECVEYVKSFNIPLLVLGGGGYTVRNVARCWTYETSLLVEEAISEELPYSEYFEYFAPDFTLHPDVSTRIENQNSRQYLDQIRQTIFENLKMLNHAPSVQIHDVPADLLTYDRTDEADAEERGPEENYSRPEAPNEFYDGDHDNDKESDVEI
Sequence (Q9Y618 395-489 partner limits assumed): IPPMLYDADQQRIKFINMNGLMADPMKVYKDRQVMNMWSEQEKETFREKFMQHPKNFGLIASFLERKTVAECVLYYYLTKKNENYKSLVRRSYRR
OUTCOME_MEASURE: Ki (nM)
Record the value in nM, omitting the unit from your answer.

For `O=c1c2ccccc2[se]n1-c1ccccc1` the molecule record lists Ki as 230

* * *

molecular target: HDAC6 (Homo sapiens, UniProt Q9UBN7); assay: HDAC deacetylase homogenous fluorescence assay, HDAC6; type: biochemical
Sequence (Q9UBN7 whole entry): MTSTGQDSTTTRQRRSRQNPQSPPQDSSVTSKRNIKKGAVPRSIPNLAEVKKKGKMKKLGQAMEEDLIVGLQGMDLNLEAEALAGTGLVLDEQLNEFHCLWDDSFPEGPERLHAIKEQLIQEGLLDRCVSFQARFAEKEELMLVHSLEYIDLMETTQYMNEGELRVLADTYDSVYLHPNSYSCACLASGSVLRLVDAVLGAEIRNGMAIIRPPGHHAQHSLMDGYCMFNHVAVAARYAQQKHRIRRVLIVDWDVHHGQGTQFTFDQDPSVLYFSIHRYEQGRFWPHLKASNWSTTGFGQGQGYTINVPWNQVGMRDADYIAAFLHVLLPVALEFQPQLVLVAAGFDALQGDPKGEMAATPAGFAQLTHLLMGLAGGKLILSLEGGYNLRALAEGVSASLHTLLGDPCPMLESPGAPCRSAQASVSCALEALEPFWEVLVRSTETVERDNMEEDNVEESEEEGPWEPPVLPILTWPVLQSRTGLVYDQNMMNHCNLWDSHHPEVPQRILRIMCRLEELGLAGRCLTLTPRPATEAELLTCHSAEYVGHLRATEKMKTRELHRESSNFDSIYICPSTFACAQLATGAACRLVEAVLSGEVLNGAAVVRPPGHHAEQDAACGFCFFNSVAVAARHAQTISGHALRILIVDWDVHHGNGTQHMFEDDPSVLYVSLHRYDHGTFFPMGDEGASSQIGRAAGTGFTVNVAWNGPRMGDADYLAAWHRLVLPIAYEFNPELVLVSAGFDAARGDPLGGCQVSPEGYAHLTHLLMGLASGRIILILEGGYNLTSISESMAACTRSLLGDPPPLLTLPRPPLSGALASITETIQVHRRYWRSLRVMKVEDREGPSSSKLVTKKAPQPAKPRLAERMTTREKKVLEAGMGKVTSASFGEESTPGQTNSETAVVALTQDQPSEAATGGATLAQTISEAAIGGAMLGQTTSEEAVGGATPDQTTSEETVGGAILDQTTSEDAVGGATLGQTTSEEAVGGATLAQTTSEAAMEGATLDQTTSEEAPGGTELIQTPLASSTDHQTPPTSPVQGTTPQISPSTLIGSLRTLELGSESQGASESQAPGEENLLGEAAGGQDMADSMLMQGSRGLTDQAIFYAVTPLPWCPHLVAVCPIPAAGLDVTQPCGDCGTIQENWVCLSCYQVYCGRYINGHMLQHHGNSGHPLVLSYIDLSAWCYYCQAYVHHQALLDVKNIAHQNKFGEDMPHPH
Known pKi of a selection of molecules
# pKi is unitless: minus log10 of the molar concentration; print number only

1) O=c1c2ccccc2[se]n1-c1ccccc1 [Ebselen, 2-phenyl-1,2-benzisoselenazol-3(2H)-one] : 5.51

Sample O=C1C(SCCO)=C(SCCO)C(=O)c2ccccc21 [NSC-95397] ; pKi observed: 5.51
